tested on: HCT-15; assay: Cytotoxicity against human HCT15 cells by SRB assay; assay type: functional; details: read-out: ED50 (the source's name)

Compound: C=C1[C@@H]2[C@H]3OC(=O)[C@@H](CN4CCC[C@H]4C(=O)O)[C@@H]3[C@@H](OC(=O)C(C)(O)CO)CC(=C)[C@@H]2C[C@@H]1O (stereo partly drawn)
Inequality symbol: =
EC50 [µM]: 18.3
//
Compound: C=C(CO)C(=O)O[C@H]1CC(=C)[C@@H]2C[C@H](O)C(=C)[C@@H]2[C@H]2OC(=O)C(=C)[C@@H]21
Inequality symbol: =
EC50 [µM]: 12.1
//
Compound: C=C1[C@@H]2[C@H]3OC(=O)[C@@H](CN[C@H](C(=O)O)[C@H](C)CC)[C@@H]3[C@@H](O)CC(=C)[C@@H]2C[C@@H]1O
Inequality symbol: >
EC50 [µM]: 30
